B1: HDV Ribozyme (parent)
chain: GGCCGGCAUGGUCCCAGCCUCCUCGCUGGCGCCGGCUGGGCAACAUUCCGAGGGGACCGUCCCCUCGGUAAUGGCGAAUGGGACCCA

Variants of: B1
assay.info: self-cleavage, relative activity (ratio to wild type); higher = more cleavage; co-transcriptional
Mark false for self-cleavage values under 0.5, and true for everything at or above.

Solved entries (count: 6):
A16C C75U: false
G1U C26G: false
A70C C86A: true
U20A G39C: false
C14G G52C: true
G5A G40C: false

*Q* Could you verify whether the entry G25U C63G shows self-cleavage of no less than 0.5?
*A* false

*Q* Could you verify whether the entry C21A U79G shows self-cleavage of no less than 0.5?
*A* false

*Q* Could you verify whether the entry C62A G74U shows self-cleavage of no less than 0.5?
*A* false

*Q* Could you verify whether the entry U69G G74A shows self-cleavage of no less than 0.5?
*A* true

*Q* Could you verify whether the entry C36G A71G shows self-cleavage of no less than 0.5?
*A* false
